Hello, the source for this data is PubChem BioAssay AID330, in case you need it.

# Test system: P388 leukemia ip, CD2F1 mice, survival T/C
# Assay Details: NCI In Vivo Anticancer Drug Screen. Data for tumor model P388 Leukemia (intraperitoneal) in CD2F1 (CDF1) mice
# Run Conditions: endpoint: median survival time; dose: 100.0 mg/kg/injection; schedule: Q01DX009 (ip); vehicle: Klucel (hydroxypropylcellulose) (HPC); higher = longer survival
Toxic doses and inconclusive results are not listed.
Reported Endpoint: T/C

>>> result("O=C1C(=C2CCCC2)CC/C1=C1/SS/C(=C2/CCC(=C3CCCC3)C2=O)S1")
"101 % of control"
>>> result("CCOC(=O)c1c(C)[nH]c2c(-c3ccccc3)c3cc(Cl)ccc3nc12")
"109 % of control"
>>> result("O=C(Nc1ccccc1Cl)Oc1ccc(Cl)cc1Cl")
"110 % of control"
>>> result("CC1(C)CCC2=C(O1)c1ccccc1C(=O)C2=O")
"115 % of control"
>>> result("C=Cc1c(C)c(O)cc2c1-c1ccc(O)c(C)c1CC2")
"92 % of control"

The measured T/C associated with `O=C1C=C(Nc2ccccc2C(=O)O)C(=O)C=C1Nc1ccccc1C(=O)O` reads 110 % of control

The measured T/C associated with `O=C(OCOC(=O)c1ccccc1)c1ccccc1` reads 117 % of control

The measured T/C associated with `O=C(NC(c1ccccc1)c1ccccc1)OCc1c2ccccc2cc2ccccc12` reads 100 % of control
